- System: DIPGX9 (diffuse intrinsic pontine glioma line)
- experiment.description: growth inhibition (% activity, log2 RLU normalised to DMSO / staurosporine); higher = more growth inhibition
- condition.context: 33 µM
Outcome: t for growth inhibition of at least 2%; f for anything lower.

{"compound": "N=C(N)NCCN1CCCCCCC1", "assigned.class": "f"}
{"compound": "CNC[C@H](O)c1cccc(O)c1", "assigned.class": "f"}
{"compound": "O=C(O)[C@H](CC(=O)N1C[C@H]2CCCC[C@H]2C1)Cc1ccccc1", "assigned.class": "f"}
{"compound": "Nc1ccn([C@H]2CC[C@@H](CO)O2)c(=O)n1", "assigned.class": "t"}
{"compound": "COc1ccc(CC(C)NCC(O)c2ccc(O)c(NC=O)c2)cc1 (stereo unspecified)", "assigned.class": "f"}
{"compound": "CN1CCC[C@@H]1CCO[C@](C)(c1ccccc1)c1ccc(Cl)cc1", "assigned.class": "t"}

###

# growth inhibition per record follows
- Test system: DIPGX37 (H3.3 K27M diffuse intrinsic pontine glioma line)
- experiment.description: growth inhibition (% activity, log2 RLU normalised to DMSO / staurosporine); higher = more growth inhibition
- condition.context: 33 µM
experimental.endpoint: growth inhibition (%)

{"compound": "Cc1ccc(S(=O)(=O)NC(=O)NN2CCCCCC2)cc1", "assay.target": "DIPGX37", "unit.name": "%", "quantitative.result": 0.973}
{"compound": "CNC(=C[N+](=O)[O-])NCCSCc1ccc(CN(C)C)o1", "assay.target": "DIPGX37", "unit.name": "%", "quantitative.result": 2.65}
{"compound": "NCC1OC(OC2C(N)CC(N)C(OC3OC(CO)C(O)C(N)C3O)C2O)C(N)C(O)C1O (configuration not stated)", "assay.target": "DIPGX37", "unit.name": "%", "quantitative.result": 0.63}
{"compound": "CC(C)NCC(O)c1ccc(O)c(O)c1 (configuration not stated)", "assay.target": "DIPGX37", "unit.name": "%", "quantitative.result": -0.899}
{"compound": "COc1cc(C(C)=O)ccc1OCCCN1CCC(c2noc3cc(F)ccc23)CC1", "assay.target": "DIPGX37", "unit.name": "%", "quantitative.result": 0.322}
{"compound": "COC(=O)N/N=C/c1c[n+]([O-])c2ccccc2[n+]1[O-]", "assay.target": "DIPGX37", "unit.name": "%", "quantitative.result": 4.18}
{"compound": "COc1cc([C@@H]2c3cc4c(cc3[C@@H](O[C@@H]3O[C@@H]5CO[C@@H](c6cccs6)O[C@H]5[C@H](O)[C@H]3O)[C@H]3COC(=O)[C@H]23)OCO4)cc(OC)c1O", "assay.target": "DIPGX37", "unit.name": "%", "quantitative.result": 1.57}
{"compound": "COc1cc(Nc2c(C#N)cnc3cc(OCCCN4CCN(C)CC4)c(OC)cc23)c(Cl)cc1Cl", "assay.target": "DIPGX37", "unit.name": "%", "quantitative.result": 2.05}
{"compound": "Nc1ncn([C@H]2C[C@H](O)[C@@H](CO)O2)c(=O)n1", "assay.target": "DIPGX37", "unit.name": "%", "quantitative.result": 0.227}
{"compound": "Nc1ncnc2c1ncn2[C@@H]1O[C@H](COP(=O)(O)OP(=O)(O)OP(=O)(O)O)[C@@H](O)[C@H]1O", "assay.target": "DIPGX37", "unit.name": "%", "quantitative.result": 3.53}
{"compound": "Cc1ccc(-c2cc(C(F)(F)F)nn2-c2ccc(S(N)(=O)=O)cc2)cc1", "assay.target": "DIPGX37", "unit.name": "%", "quantitative.result": -3.87}
{"compound": "CN(C)CCCN1c2ccccc2Sc2ccc(Cl)cc21", "assay.target": "DIPGX37", "unit.name": "%", "quantitative.result": -1.4}
{"compound": "Cc1ccc(N(CC2=NCCN2)c2cccc(O)c2)cc1", "assay.target": "DIPGX37", "unit.name": "%", "quantitative.result": -4.29}
{"compound": "C[C@@]12C[C@@]3(O)O[C@@H](O1)[C@]1(COC(=O)c4ccccc4)[C@H]3C[C@@]12O[C@@H]1O[C@H](CO)[C@@H](O)[C@H](O)[C@H]1O", "assay.target": "DIPGX37", "unit.name": "%", "quantitative.result": 0.987}
{"compound": "COC(=O)N[C@H](C(=O)N[C@@H](Cc1ccccc1)[C@@H](O)CN(Cc1ccc(-c2ccccn2)cc1)NC(=O)[C@@H](NC(=O)OC)C(C)(C)C)C(C)(C)C", "assay.target": "DIPGX37", "unit.name": "%", "quantitative.result": -2.21}
{"compound": "C=C[C@]1(C)C[C@@H](OC(=O)CSC(C)(C)CNC(=O)[C@H](N)C(C)C)[C@]2(C)[C@H](C)CC[C@]3(CCC(=O)[C@H]32)[C@@H](C)[C@@H]1O", "assay.target": "DIPGX37", "unit.name": "%", "quantitative.result": 0.213}
{"compound": "CO[C@H]1C[C@@H]2CC[C@@H](C)[C@@](O)(O2)C(=O)C(=O)N2CCCC[C@H]2C(=O)O[C@H]([C@H](C)C[C@@H]2CC[C@@H](OC(=O)C(C)(CO)CO)[C@H](OC)C2)CC(=O)[C@H](C)/C=C(\\C)[C@@H](O)[C@@H](OC)C(=O)[C@H](C)C[C@H](C)/C=C/C=C/C=C/1C", "assay.target": "DIPGX37", "unit.name": "%", "quantitative.result": 0.103}
{"compound": "COC(=O)CCc1ccc(OCC(O)CNC(C)C)cc1 (configuration not stated)", "assay.target": "DIPGX37", "unit.name": "%", "quantitative.result": 1.63}
{"compound": "COc1ccc2c(c1)c(CC(=O)O)c(C)n2C(=O)c1ccc(Cl)cc1", "assay.target": "DIPGX37", "unit.name": "%", "quantitative.result": -0.682}
{"compound": "CC(C(=O)O)c1ccc2c(c1)Cc1cccnc1O2 (configuration not stated)", "assay.target": "DIPGX37", "unit.name": "%", "quantitative.result": 2.25}
{"compound": "CC(=O)Oc1ccccc1C(=O)Nc1ncc([N+](=O)[O-])s1", "assay.target": "DIPGX37", "unit.name": "%", "quantitative.result": 4.15}
{"compound": "COc1ccc(O)cc1", "assay.target": "DIPGX37", "unit.name": "%", "quantitative.result": 0.851}
{"compound": "CCC(=O)NCC[C@@H]1CCc2ccc3c(c21)CCO3", "assay.target": "DIPGX37", "unit.name": "%", "quantitative.result": -0.134}
{"compound": "CN1C(CCl)Nc2cc(Cl)c(S(N)(=O)=O)cc2S1(=O)=O (configuration not stated)", "assay.target": "DIPGX37", "unit.name": "%", "quantitative.result": 1.82}
{"compound": "Clc1cccc(Cl)c1NC1=NCCN1", "assay.target": "DIPGX37", "unit.name": "%", "quantitative.result": -3.42}
{"compound": "CC(C)(C#N)c1cc(Cn2cncn2)cc(C(C)(C)C#N)c1", "assay.target": "DIPGX37", "unit.name": "%", "quantitative.result": 0.615}
{"compound": "CCC(C)C1OC2(CCC1C)CC1CC(CC=C(C)C(OC3CC(OC)C(OC4CC(OC)C(O)C(C)O4)C(C)O3)C(C)C=CC=C3COC4C(O)C(C)=CC(C(=O)O1)C34O)O2 (configuration not stated)", "assay.target": "DIPGX37", "unit.name": "%", "quantitative.result": 0.396}
{"compound": "CS(=O)(=O)c1ccc([C@@H](O)[C@@H](CO)NC(=O)C(Cl)Cl)cc1", "assay.target": "DIPGX37", "unit.name": "%", "quantitative.result": 3.94}
{"compound": "CN1CC(=O)NC1=N", "assay.target": "DIPGX37", "unit.name": "%", "quantitative.result": -0.026}
{"compound": "C=C1CCC(O)CC1=CC=C1CCCC2(C)C1CCC2C(C)CCCC(C)(C)O (configuration not stated)", "assay.target": "DIPGX37", "unit.name": "%", "quantitative.result": 2.58}
{"compound": "C[C@@H](O)[C@H]1C(=O)N2C(C(=O)[O-])=C(SC3Cn4cnc[n+]4C3)[C@H](C)[C@H]12 (some centres not stated)", "assay.target": "DIPGX37", "unit.name": "%", "quantitative.result": -1.93}
{"compound": "NCCCC(O)(P(=O)(O)O)P(=O)(O)O", "assay.target": "DIPGX37", "unit.name": "%", "quantitative.result": -3.88}
{"compound": "CN1CCC[C@@H]1CCO[C@](C)(c1ccccc1)c1ccc(Cl)cc1", "assay.target": "DIPGX37", "unit.name": "%", "quantitative.result": 3.39}
{"compound": "CN1CCN(c2c(F)cc3c(=O)c(C(=O)O)cn4c3c2OCN4C)CC1", "assay.target": "DIPGX37", "unit.name": "%", "quantitative.result": 0.371}
{"compound": "CC(NCCc1ccc(O)cc1)C(O)c1ccc(O)cc1 (configuration not stated)", "assay.target": "DIPGX37", "unit.name": "%", "quantitative.result": -0.38}
{"compound": "CC#CCn1c(N2CCC[C@@H](N)C2)nc2c1c(=O)n(Cc1nc(C)c3ccccc3n1)c(=O)n2C", "assay.target": "DIPGX37", "unit.name": "%", "quantitative.result": -1.17}
{"compound": "CCOC(=O)[C@H](CCc1ccccc1)N[C@@H](C)C(=O)N1Cc2cc(OC)c(OC)cc2C[C@H]1C(=O)O", "assay.target": "DIPGX37", "unit.name": "%", "quantitative.result": -2.28}
